- Tested On: T1, cynomolgus monkey CD3 E&D complex protein (Sino Biological Inc., CT032-00323H) (cynomolgus monkey, UniProt Q95LI5 22-117; Q95LI8 22-105)
- T1 construct: bought heterodimer
- T1 sequence (Q95LI5 22-117, chain 1 of 2): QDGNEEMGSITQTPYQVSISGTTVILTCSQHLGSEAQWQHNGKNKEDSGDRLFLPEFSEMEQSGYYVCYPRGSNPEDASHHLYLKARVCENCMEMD
- T1 sequence (Q95LI8 22-105, chain 2 of 2): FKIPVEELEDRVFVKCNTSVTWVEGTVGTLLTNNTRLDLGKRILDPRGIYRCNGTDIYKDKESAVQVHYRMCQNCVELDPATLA
- Method Summary: BLI, antibody on sensor
Recorded Endpoint: pKd
Convention used: pKd is expressed as -log10 of the molar concentration.

Documented pKd of hzsp34.25 (antibody, human IgG1, lambda, L234A L235A, V domains shown, IgG1 L234A L235A, lambda) VH: EVQLVESGGGLVQPGGSLKLSCAASGFTFNTYAMNWVRQASGKGLEWVARIRSKYNNYATYYADSVKDRFTISRDDSKSTLYLQMNSLKTEDTAVYYCARHGNFGQSYVSWFAYWGQGTTVTVSS VL: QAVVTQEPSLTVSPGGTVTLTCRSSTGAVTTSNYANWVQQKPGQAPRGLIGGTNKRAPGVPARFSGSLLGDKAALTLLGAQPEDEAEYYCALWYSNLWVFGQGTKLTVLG : 9.07

Short answer for hzsp34.7 (antibody, human IgG1, lambda, L234A L235A, V domains shown, IgG1 L234A L235A, lambda) VH: EVQLVESGGGLVQPGGSLKLSCAASGFTFNTYAMNWVRQASGKGLEWVGRIRSKYNNYATYYADSVKDRFTISRDDSKNTLYLQMNSLKTEDTAVYYCARHGNFGNSYVSWFAYWGQGTTVTVSS VL: QAVVTQEPSLTVSPGGTVTLTCRSSTGAVTTSNYANWFQQKPGQAPRTLIYGTNKRAPWTPARFSGSLLGGKAALTLLGAQPEDEAEYYCALWYSNLWVFGQGTKLTVLG : pKd was 8.78

For reference, reported pKd for hzsp34.24 (antibody, human IgG1, lambda, L234A L235A, V domains shown, IgG1 L234A L235A, lambda; parent of the CDR mutants) VH: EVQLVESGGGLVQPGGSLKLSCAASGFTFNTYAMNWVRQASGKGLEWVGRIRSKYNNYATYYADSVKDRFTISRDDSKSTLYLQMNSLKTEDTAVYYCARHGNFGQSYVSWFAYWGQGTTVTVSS VL: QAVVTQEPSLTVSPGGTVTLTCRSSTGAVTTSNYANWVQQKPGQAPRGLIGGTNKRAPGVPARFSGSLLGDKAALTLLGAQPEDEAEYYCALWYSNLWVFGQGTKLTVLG stands at 9.13

Recorded result, hzsp34.15 (antibody, human IgG1, lambda, L234A L235A, V domains shown, IgG1 L234A L235A, lambda) VH: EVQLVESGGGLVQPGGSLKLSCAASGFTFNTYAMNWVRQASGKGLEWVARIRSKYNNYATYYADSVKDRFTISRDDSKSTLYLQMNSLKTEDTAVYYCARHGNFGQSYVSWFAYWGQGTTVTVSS VL: QAVVTQEPSLTVSPGGTVTLTCRSSTGAVTTSNYANWVQQKPGQAPRTLIGGTNKRAPGVPARFSGSLLGGKAALTLLGAQPEDEAEYYCALWYSNLWVFGQGTKLTVLG , pKd: 8.76

// data source = patent US20230374132A1
